# maps each entry to its z-score
assay: HepG2 cell viability effects, profiling panel, calcein-AM fluorescence, 48 h, basal (AID 1164); settings: higher = more signal; further: test concentration not given here
Form rule: numeric answer, no unit written next to it.

Ask: Consider the molecule CN1C2C=C(CCCO)C(C3C(=O)N(C(N)=O)C(=O)C32)C1c1ccc(CN2CCCC2)cc1 (centres undefined) and give its recorded z-score.
Result: -0.357

###

target: Torsin-1A (Homo sapiens); test: torsin A binders from cell lysate, primary screen, small-molecule microarray, wild-type, 635/667 nm (AID 1149); settings: COS7 hTOR1A-WT lysate, 635 nm fluorescence, higher = more signal
Quantity measured: composite z-score
# print the numeric value only

The following molecules have reported results that may help.
- Molecule: "COC(=O)c1c(CC[C@@H](CO)NC(=O)N[C@@H](C)Cn2cc(C3(O)CCCCC3)nn2)oc(C(C)=O)c1C(=O)OC"
  Number: 1.07
- Molecule: "O=C1NC(=O)C2C1C=CC(C(O)Cc1ccccc1)N2Nc1ccc(Cl)cc1Cl (centres undefined)"
  Number: -0.0973
- Molecule: "COCCn1c(C(=O)N2CCCC2)cc2c1C[C@H]1CN(C(=O)c3ccccc3)[C@@](Cc3ccc(F)cc3)(C(=O)OC)[C@@H]21"
  Number: 1.42

As a next step, examine the molecule that follows.
Ask: Specify the recorded composite z-score for Cc1ccc(S[C@]2(C(=O)NCC(F)(F)F)CC(=O)N(C(C)C)[C@@H]2c2ccc(CO)cc2I)cc1 , system: Torsin-1A (Homo sapiens).
Result: -0.846

Each recorded value in this set is attributed to PubChem BioAssay.
